molecular target: PI3Kdelta (Homo sapiens (Human), UniProt O00329); assay: HTRF PI3K biochemical assay, delta isoform; conditions: 0.3 nM enzyme, 100 uM ATP, 5 uM PIP2, form screened: Neutral
Sequence (O00329 whole entry, canonical isoform): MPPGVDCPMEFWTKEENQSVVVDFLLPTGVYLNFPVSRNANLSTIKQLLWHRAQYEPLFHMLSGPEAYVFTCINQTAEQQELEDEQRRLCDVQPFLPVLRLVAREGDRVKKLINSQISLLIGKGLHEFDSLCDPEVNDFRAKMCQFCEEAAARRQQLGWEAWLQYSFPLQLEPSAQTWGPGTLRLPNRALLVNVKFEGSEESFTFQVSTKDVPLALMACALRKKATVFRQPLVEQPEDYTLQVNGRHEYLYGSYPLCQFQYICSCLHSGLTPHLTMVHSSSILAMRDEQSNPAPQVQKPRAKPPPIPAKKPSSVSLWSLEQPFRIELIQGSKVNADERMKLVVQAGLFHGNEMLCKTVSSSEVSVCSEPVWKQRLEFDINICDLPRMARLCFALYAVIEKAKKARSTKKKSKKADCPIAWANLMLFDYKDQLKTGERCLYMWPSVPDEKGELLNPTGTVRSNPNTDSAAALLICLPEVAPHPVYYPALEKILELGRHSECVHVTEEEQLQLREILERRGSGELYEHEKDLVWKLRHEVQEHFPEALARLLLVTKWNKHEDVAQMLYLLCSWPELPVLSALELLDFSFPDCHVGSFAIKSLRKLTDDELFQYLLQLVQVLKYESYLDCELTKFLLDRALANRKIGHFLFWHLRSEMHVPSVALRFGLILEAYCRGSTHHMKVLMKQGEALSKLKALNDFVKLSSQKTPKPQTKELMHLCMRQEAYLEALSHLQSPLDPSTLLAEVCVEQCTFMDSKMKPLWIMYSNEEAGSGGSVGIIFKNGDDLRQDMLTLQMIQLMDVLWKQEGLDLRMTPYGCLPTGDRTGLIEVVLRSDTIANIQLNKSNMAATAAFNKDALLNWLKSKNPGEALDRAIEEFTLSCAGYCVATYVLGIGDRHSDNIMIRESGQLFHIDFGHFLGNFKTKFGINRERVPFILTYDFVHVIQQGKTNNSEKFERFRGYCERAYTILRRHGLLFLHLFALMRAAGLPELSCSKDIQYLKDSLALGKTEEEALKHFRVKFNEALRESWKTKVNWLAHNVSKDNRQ
Sequence (P27986 whole entry partner, canonical isoform): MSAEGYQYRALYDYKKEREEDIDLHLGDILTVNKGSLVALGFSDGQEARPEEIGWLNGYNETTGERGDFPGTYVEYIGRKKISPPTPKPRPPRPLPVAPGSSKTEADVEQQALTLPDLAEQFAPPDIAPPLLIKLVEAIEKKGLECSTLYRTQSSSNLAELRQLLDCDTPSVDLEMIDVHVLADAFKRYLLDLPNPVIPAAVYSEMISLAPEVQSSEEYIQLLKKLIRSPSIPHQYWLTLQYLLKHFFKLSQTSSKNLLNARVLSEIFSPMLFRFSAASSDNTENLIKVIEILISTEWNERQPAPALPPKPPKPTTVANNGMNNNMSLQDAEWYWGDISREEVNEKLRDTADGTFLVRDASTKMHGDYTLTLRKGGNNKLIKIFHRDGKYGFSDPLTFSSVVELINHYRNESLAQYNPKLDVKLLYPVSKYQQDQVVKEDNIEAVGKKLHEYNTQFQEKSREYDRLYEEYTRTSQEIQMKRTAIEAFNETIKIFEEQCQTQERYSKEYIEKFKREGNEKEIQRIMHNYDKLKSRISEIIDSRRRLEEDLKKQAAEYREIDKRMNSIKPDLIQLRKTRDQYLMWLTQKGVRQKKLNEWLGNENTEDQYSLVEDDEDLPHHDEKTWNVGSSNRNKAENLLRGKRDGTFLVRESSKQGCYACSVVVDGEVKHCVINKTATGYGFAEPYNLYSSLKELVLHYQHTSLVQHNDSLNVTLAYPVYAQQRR
pIC50: −log10 of the molar value.
property.measured: pIC50

>  <molecule>
CC[C@H](Nc1ncnc2c1nc(-c1cnc(C)nc1)n2CC)C(=O)N1C[C@@H](C)N(C(C)=O)[C@@H](C)C1

>  <pIC50>
7.68

$$$$
>  <molecule>
CCn1c(-c2cnc(C)nc2)nc2c(N[C@@H](COC)C(=O)N3C[C@@H](C)O[C@@H](C)C3)ncnc21

>  <pIC50>
7.57

$$$$
>  <molecule>
CCn1c(-c2cnc(C)nc2)nc2c(NC(C(=O)N3C[C@@H](C)O[C@@H](C)C3)C3CC3)ccnc21 (single isomer, unassigned)

>  <pIC50>
8.28

$$$$

(P) CC[C@H](Nc1ncnc2c1nc(-c1cnc(C)nc1)n2CC)C(=O)N1C[C@@H](C)N(C)[C@@H](C)C1
(Q) CCn1c(-c2cnc(C)nc2)nc2c(NCC3(C(=O)N4CCCC4)CC3)ncnc21
(R) CCn1c(-c2cnc(C)nc2)nc2c(N[C@@H](CN(C)C)C(=O)N3C[C@@H](C)O[C@@H](C)C3)ncnc21
Task: Hey, quick one: sort these by pIC50, largest value first please. Field: ranking. Enter the labels in the order requested.
Result: P, Q, R
